A405+ listing for selected binders.
# measurement-target: T1, human Her2 (ECD)-Fc protein (human, UniProt P04626 23-652)
# T1 construct: extracellular domain; Made in HEK293F cells; also called hHer2 (ECD)-Fc antigen; Her2 (ECD)-Fc antigen; not shown: TEV restriction site at the C-terminal of hHer2 (ECD); IgG1 Fc of the pFUSE-IgG1 vector
# protocol-description: PE-ELISA, crude extract on antigen-coated plate
property: A405+ (A405)

[
  {
    "binder": "Nanobody No. 39 (VHH, also called 39; not shown: tags (HA, His) implied by anti-HA detection and nickel column) VHH: QVQLQESGGGSVQAGGSLRLSCAASGYTYTGYCMGWFRQAPGKEREGVATIDSDGDTSYADSVKGRFTISKDNAKNTLYLQMNSLKPEDTAMYYCAADFRRWHLCSSSFREDGMDYWGKGTQVTVSS",
    "property": "A405+",
    "measurement-unit": "A405",
    "endpoint-value": 1.86
  },
  {
    "binder": "Nanobody No. 25 (VHH, also called 25; not shown: tags (HA, His) implied by anti-HA detection and nickel column) VHH: QVQLQESGGGSVQAGETLRLSCTASGFTFDDSDSDMGWYRQAPGNECELVSSISSDGSTYYADSVKGRFTISQDNAKNTVYLQMNSPKPEDTAVYYCAAINSGYELGTCESLDYWGRGTQVTVSS",
    "property": "A405+",
    "measurement-unit": "A405",
    "endpoint-value": 1.97
  },
  {
    "binder": "Nanobody No. 38 (VHH, also called 38; not shown: tags (HA, His) implied by anti-HA detection and nickel column) VHH: QVQLQESGGGSVQAGGSLRLSCAASGFTYTGYCMGWFRQAPGKEREGVATVDSDGDTSYADSVKGRFTISKDNAKNTLYLQMNSLKPEDTAMYYCAADFSRWHLCSTSLATLGYWGQGTQVTVSS",
    "property": "A405+",
    "measurement-unit": "A405",
    "endpoint-value": 2.14
  },
  {
    "binder": "Nanobody No. 31 (VHH, also called 31; not shown: tags (HA, His) implied by anti-HA detection and nickel column) VHH: QVQLQESGGGSVQAGETLRLSCTASGFTFNDSNMGWYRQAPGHECELVSTISSDGSTYYADSVKGRFTISQNNARNTVYLQMNSLKPEDTAVYYCAGDWGYELGICTSLDYWGQGTQVTVSS",
    "property": "A405+",
    "measurement-unit": "A405",
    "endpoint-value": 1.65
  },
  {
    "binder": "Nanobody No. 7 (VHH, not shown: tags (HA, His) implied by anti-HA detection and nickel column) VHH: QVQLQESGGGSVQAGETLRLSCTASGFTFDDSDMGWYRQAPGNECELVSTISSDGSTYYADSVKGRFTISQDNAKNTVYLQMNSLKPEDTAVYYCAADKDARGYELGTCESLDYWGRGTQVTVSS",
    "property": "A405+",
    "measurement-unit": "A405",
    "endpoint-value": 2.24
  },
  {
    "binder": "Nanobody No. 24 (VHH, also called 24; not shown: tags (HA, His) implied by anti-HA detection and nickel column) VHH: QVQLQESGGGSVQAGETLRLSCTASGFTFDDSDSDMGWYRQAPGNECELVSSISSDGSTYYADSVKGRFTISQDNAKNTVYLQMNSLKPEDTAVYYCAAINSGYELGTCESLDYWGRGTQVTVSS",
    "property": "A405+",
    "measurement-unit": "A405",
    "endpoint-value": 2.68
  },
  {
    "binder": "Nanobody No. 34 (VHH, also called 34; not shown: tags (HA, His) implied by anti-HA detection and nickel column) VHH: QVQLQESGGGSVQAGGSLRLSCTVSGFTFDDVDMGWYRQAPGNECELVSTISSDGSTYYADSVKGRFTISQDNAKNTVYLQMNSLKPEDTAMYYCAAARYSDYEGMCGYWSQGTQVTVSS",
    "property": "A405+",
    "measurement-unit": "A405",
    "endpoint-value": 2.26
  },
  {
    "binder": "Nanobody No. 37 (VHH, also called 37; not shown: tags (HA, His) implied by anti-HA detection and nickel column) VHH: QVQLQESGGGSVQAGETLRLSCTVSGFTFDDADMGWYRQAPGNQCELVSTISSDGITYYADSVKGRFTVSQDNAKNTVYLQMNSLKPEDTAMYYCAAARYSDYEGMCGYWSQGTQVTVSS",
    "property": "A405+",
    "measurement-unit": "A405",
    "endpoint-value": 2.1
  }
]

The measurements presented in this section are drawn from patent US20230263916A1.
